run description: Individual predicted steady-state exposures
Assay type: in vivo, human
conditions used: human, plasma, oral, 10 mg, AUC24, Median (5th to 95th percentile), ADVANCE EM, 10 mg QD

# structure as smiles, AUC
rows = [
    ("C[C@@H]1[C@H](c2c(F)ccc(F)c2F)C[C@H](NC(=O)c2cnc3c(c2)C[C@@]2(C3)C(=O)Nc3ncccc32)C(=O)N1CC(F)(F)F", "464 ng·h/mL"),
]

###

run description: Individual predicted steady-state exposures
Assay type: in vivo, human
conditions used: human, plasma, oral, 60 mg, AUC24, Median (5th to 95th percentile), CGP-MD-01 EM, 60 mg QD

# structure as smiles, AUC [ng·h/mL]
measured = [
    ("C[C@@H]1[C@H](c2c(F)ccc(F)c2F)C[C@H](NC(=O)c2cnc3c(c2)C[C@@]2(C3)C(=O)Nc3ncccc32)C(=O)N1CC(F)(F)F", 3450),
]

###

run description: Individual predicted steady-state exposures
Type: in vivo, human
conditions used: human, plasma, oral, 30 mg, AUC24, Median (5th to 95th percentile), CGP-MD-01 EM, 30 mg BID

# molecule, AUC [µg·h/mL]
measured = [
    ("C[C@@H]1[C@H](c2c(F)ccc(F)c2F)C[C@H](NC(=O)c2cnc3c(c2)C[C@@]2(C3)C(=O)Nc3ncccc32)C(=O)N1CC(F)(F)F [atogepant, Atogepant]", 3.18),
]

###

run description: Individual predicted steady-state exposures
Type: in vivo, human
conditions used: human, plasma, oral, 30 mg, AUC24, Median (5th to 95th percentile), ADVANCE EM, 30 mg QD

# structure as smiles, endpoint unit, AUC
records = [
    ("C[C@@H]1[C@H](c2c(F)ccc(F)c2F)C[C@H](NC(=O)c2cnc3c(c2)C[C@@]2(C3)C(=O)Nc3ncccc32)C(=O)N1CC(F)(F)F", "ng·h/mL", 1560),
]

###

run description: Individual predicted steady-state exposures
Format: in vivo, human
conditions used: human, plasma, oral, 10 mg, Cmax, Mean (SD), ADVANCE EM, 10 mg QD
result type: Cmax (ng/mL)

# structure as smiles, result type, value reported
data = [
    ("C[C@@H]1[C@H](c2c(F)ccc(F)c2F)C[C@H](NC(=O)c2cnc3c(c2)C[C@@]2(C3)C(=O)Nc3ncccc32)C(=O)N1CC(F)(F)F", "Cmax", 81.7),
]

###

run description: Individual predicted steady-state exposures
Format: in vivo, human
conditions used: human, plasma, oral, 60 mg, AUC24, Median (5th to 95th percentile), ELEVATE EM, 60 mg QD

# structure as smiles, AUC (ng·h/mL)
rows = [
    ("C[C@@H]1[C@H](c2c(F)ccc(F)c2F)C[C@H](NC(=O)c2cnc3c(c2)C[C@@]2(C3)C(=O)Nc3ncccc32)C(=O)N1CC(F)(F)F", 3310),
]

###

run description: Individual predicted steady-state exposures
Assay type: in vivo, human
conditions used: human, plasma, oral, 60 mg, AUC24, Mean (SD), CGP-MD-01 EM, 60 mg BID

# compound, AUC, ng·h/mL
records = [
    ("C[C@@H]1[C@H](c2c(F)ccc(F)c2F)C[C@H](NC(=O)c2cnc3c(c2)C[C@@]2(C3)C(=O)Nc3ncccc32)C(=O)N1CC(F)(F)F [atogepant, Atogepant]", 7940),
]
